Listed below: T/C values for each entry.
System: L1210 leukemia ip in BDF1 mice, survival T/C
Assay: NCI In Vivo Anticancer Drug Screen. Data for tumor model L1210 Leukemia (intraperitoneal) in B6D2F1 (BDF1) mice
Conditions: endpoint: mean survival time; dose: 100.0 mg/kg/injection; schedule: Q01DX001 (ip); vehicle: carboxymethylcellulose (CMC); higher = longer survival
Inconclusive results and toxic doses are left out.

O=S(=O)(F)c1ccccc1S(=O)(=O)Cl	95 % of control
BrC1CC2CCCCC2CC1Br (stereo not given)	98 % of control
O=C1NC(=O)C(CCI)(CCI)C(=O)N1	103 % of control

Kindly consider the entry below.
Sample [N-]=[N+]=Nc1ccc(S(=O)(=O)Nc2ncccn2)cc1 — what was its T/C?
113 % of control

###

Test system: L1210 leukemia ip in BDF1 mice, survival T/C
Assay: NCI In Vivo Anticancer Drug Screen. Data for tumor model L1210 Leukemia (intraperitoneal) in B6D2F1 (BDF1) mice
Conditions: endpoint: mean survival time; dose: 200.0 mg/kg/injection; schedule: Q01DX001 (ip); vehicle: saline with Tween-80; higher = longer survival
Inconclusive results and toxic doses are left out.
quantity: T/C

Known results for molecules:
CCOC(=O)N/N=C(/C)c1ccc(C)cc1	101 % of control
Cc1ccc(S(=O)(=O)OCC2OCOC2C2OCOC2C)cc1 (stereo not drawn)	93 % of control

Kindly consider the entry below.
Sample CN(C)c1ncnc2c1ncn2Cc1ccccc1 — what was its T/C?
96 % of control

###

Listed below: T/C values for each entry.
Test system: L1210 leukemia ip in BDF1 mice, survival T/C
Assay: NCI In Vivo Anticancer Drug Screen. Data for tumor model L1210 Leukemia (intraperitoneal) in B6D2F1 (BDF1) mice
Conditions: endpoint: mean survival time; dose: 100.0 mg/kg/injection; schedule: Q01DX001 (ip); vehicle: Klucel (hydroxypropylcellulose) (HPC); higher = longer survival
Inconclusive results and toxic doses are left out.

COc1ccccc1-n1c(O)c(N=Nc2ccc(C)cc2)c(=O)n(-c2ccccc2)c1=S	103 % of control

Kindly consider the entry below.
Sample COC(=O)C1(C(=O)OC)C2CCCCC21 (configuration not stated) — what was its T/C?
90 % of control

###

Tested on: L1210 leukemia ip in BDF1 mice, survival T/C
Assay: NCI In Vivo Anticancer Drug Screen. Data for tumor model L1210 Leukemia (intraperitoneal) in B6D2F1 (BDF1) mice
Settings: endpoint: mean survival time; dose: 100.0 mg/kg/injection; schedule: Q01DX009 (ip); vehicle: saline with Tween-80; higher = longer survival
Inconclusive results and toxic doses are left out.
Listed below: T/C values for each entry.

Known results for molecules:
N=C1C=C(N)C(=O)c2ccccc21	101 % of control
Cc1ccc(S(=O)(=O)NC(N)=NCCCC(NC(=O)OC(C)(C)C)C(=O)O)cc1 (stereo not given)	89 % of control
Cc1csc(C)n1	95 % of control
CC(C)C(CN)(CCCN1CCOCC1)c1cccc2ccccc12 (stereo not given)	94 % of control
CC(=O)OC1CCC2(C)C(CCC3C2C(=O)C(OC(C)=O)C2(C)C3CC3OC4(CCC(C)CO4)C(C)C32)C1 (stereo not given)	90 % of control
OCc1ccc(Cl)cc1Cl	103 % of control
COc1ccc(OCC(=O)O)c(C=O)c1	95 % of control
COC(=O)C(C)NC(=O)Cc1ccccc1 (stereo not given)	94 % of control

Sample COc1ccc(C(=O)/C=C/c2cccc([N+](=O)[O-])c2)cc1 — what was its T/C?
97 % of control

Subsequent entry: COc1cc(CC#N)cc(OC)c1
88 % of control

Subsequent entry: C=CCSC(C)CC (stereo not given)
101 % of control

###

Tested on: L1210 leukemia ip in BDF1 mice, survival T/C
Experiment: NCI In Vivo Anticancer Drug Screen. Data for tumor model L1210 Leukemia (intraperitoneal) in B6D2F1 (BDF1) mice
Conditions: endpoint: mean survival time; dose: 400.0 mg/kg/injection; schedule: Q01DX001 (ip); vehicle: carboxymethylcellulose (CMC); higher = longer survival
Toxic doses and inconclusive results are not listed.
quantity: T/C

Known results for compounds:
O=C1c2cc(Br)ccc2-c2cc(Br)c(NC(=O)C(F)(F)F)c(Br)c21	99 % of control
Nc1cc2c(cc1I)-c1ccc(Br)cc1C2	98 % of control
Nc1nc(-c2ccccc2)c(CCCOc2ccc(NC(=O)CBr)cc2)c(=O)[nH]1	86 % of control
CCOc1ccccc1/C=N/Nc1nnc(N/N=C/c2ccccc2OCC)c2ccccc12	91 % of control
O=C(CCCC(=O)N=Nc1c(Cl)c(O)c2ccccc2c1O)N=Nc1c(Cl)c(O)c2ccccc2c1O	103 % of control
Cc1cc(C)c(OC2=C(c3c(C)cc(C)cc3C)C(=O)c3ccccc32)c(C)c1	96 % of control
CCOc1ccc(NC2=C(OC)C(=O)C(Nc3ccc(OCC)cc3)=C(OC)C2=O)cc1	93 % of control

Kindly consider the entry below.
Sample CC(=O)OCCC/C(=C/c1cc2ccccc2c2ccccc12)[N+](=O)[O-] — what was its T/C?
97 % of control

###

Listed below: T/C values for each entry.
System: L1210 leukemia ip in BDF1 mice, survival T/C
Assay: NCI In Vivo Anticancer Drug Screen. Data for tumor model L1210 Leukemia (intraperitoneal) in B6D2F1 (BDF1) mice
Details: endpoint: mean survival time; dose: 25.0 mg/kg/injection; schedule: Q01DX009 (ip); vehicle: saline with Tween-80; higher = longer survival
Inconclusive results and toxic doses are left out.

C=C(Cl)c1c(C)cc(C)cc1C	98 % of control

Give recorded T/C with L1210 leukemia ip in BDF1 mice, survival T/C for the following compound: C=CCOCC(O)CN(CCCC)CCCC (stereo not given)
95 % of control

Subsequent entry: S=c1nccc[nH]1
103 % of control

Subsequent entry: CCOP(=[Se])(OCC)OCC
107 % of control

Subsequent entry: COC(=O)C1(C(=O)OC)C(c2ccccc2)C1(C(=O)OC)C(=O)OC
98 % of control

###

Test system: L1210 leukemia ip in BDF1 mice, survival T/C
Test: NCI In Vivo Anticancer Drug Screen. Data for tumor model L1210 Leukemia (intraperitoneal) in B6D2F1 (BDF1) mice
Conditions: endpoint: mean survival time; dose: 200.0 mg/kg/injection; schedule: Q01DX001 (ip); vehicle: saline; higher = longer survival
Inconclusive results and toxic doses are left out.
quantity: T/C

CC1CN1P(=O)(N1CC=CCC1)N1CC1C (stereo not drawn)	101 % of control

Kindly consider the entry below.
Sample OC(Cc1cccc(=S)[nH]1)(c1ccccc1)c1ccccc1 — what was its T/C?
93 % of control

###

Listed below: T/C values for each entry.
Tested on: L1210 leukemia ip in BDF1 mice, survival T/C
Assay: NCI In Vivo Anticancer Drug Screen. Data for tumor model L1210 Leukemia (intraperitoneal) in B6D2F1 (BDF1) mice
Conditions: endpoint: mean survival time; dose: 100.0 mg/kg/injection; schedule: Q04DX002 (ip); vehicle: saline; higher = longer survival
Inconclusive results and toxic doses are left out.

Known results for compounds:
CC(N)C(=O)NC(C(=O)O)C(C)O (configuration not stated)	113 % of control
Cc1cc(-c2ccccc2O)nc(N)n1	90 % of control

Sample COC1OC(CO)C2OC(C)(C)OC2C1O (configuration not stated) — what was its T/C?
93 % of control

###

Test system: L1210 leukemia ip in BDF1 mice, survival T/C
Experiment: NCI In Vivo Anticancer Drug Screen. Data for tumor model L1210 Leukemia (intraperitoneal) in B6D2F1 (BDF1) mice
Details: endpoint: mean survival time; dose: 200.0 mg/kg/injection; schedule: Q04DX003 (ip); vehicle: saline; higher = longer survival
Toxic doses and inconclusive results are not listed.
Listed below: T/C values for each entry.

Known results for molecules:
O=C(Nc1cccc(C(F)(F)F)c1)Nc1c(Oc2ccc(Cl)c(Cl)c2)ccc(Cl)c1S(=O)(=O)O	94 % of control
COC1C(O)C(O)OC(CO)C1O (configuration not stated)	104 % of control
COC(=O)C(N)CSC (configuration not stated)	97 % of control
COc1ccc(/C=C/[N+](=O)[O-])cc1O	86 % of control
CN(C)Cc1cc(C(C)(C)C)ccc1O	91 % of control

Sample CC1(CO)CCCC2(C)c3cc(O)ccc3CCC12 (configuration not stated) — what was its T/C?
97 % of control

Subsequent entry: CC(=O)C(C)(NCc1ccccc1)c1ccccc1 (configuration not stated)
102 % of control

###

Listed below: T/C values for each entry.
Test system: L1210 leukemia ip in BDF1 mice, survival T/C
Assay: NCI In Vivo Anticancer Drug Screen. Data for tumor model L1210 Leukemia (intraperitoneal) in B6D2F1 (BDF1) mice
Settings: endpoint: mean survival time; dose: 200.0 mg/kg/injection; schedule: Q01DX001 (ip); vehicle: saline with Tween-80; higher = longer survival
Description: The antitumor activity of compounds was measured in mice bearing transplantable tumors. Survival or tumor size were measured and the results are expressed as the measurement made in the treated group (T) divided by the measurement made in the vehicle treated control group (C). The tumor model used in this assay is L1210 Leukemia (intraperitoneal) in B6D2F1 (BDF1) mice
Toxic doses and inconclusive results are not listed.

Known results for molecules:
CC(=O)COc1ccc([N+](=O)[O-])cc1	102 % of control
CC(=O)OCC(OC(C)=O)C(OC(C)=O)C(OC(C)=O)C(COC(=O)c1ccccc1)OC(=O)c1ccccc1 (stereo not drawn)	89 % of control
CSc1ccc(NC(=O)Oc2ccccn2)cc1	103 % of control

Kindly consider the entry below.
Sample CN(N=O)C(=O)NCC1OC(n2cnc3c(N)ncnc32)C(O)C1O (stereo not drawn) — what was its T/C?
106 % of control
